test system: Wnt5a (protein binding on small-molecule microarray); experiment: small molecules binding Wnt5a protein – biophysical, small-molecule microarray, 635/667 nm fluorescence, primary screen (AID 1142); settings: 635 nm fluorescence, higher = more signal;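 also: fluorescence read at 667 nm with signal to noise per printed feature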
What composite z-score was measured for each of the following?
// keep it numeric: no unit symbol after the value

Recorded composite z-score for CN1C(=O)C2C=CC(C(O)C3CCCCC3)N(N(c3ccccc3)c3ccccc3)C2C1=O (stereo not given) , please?
0.0957

Recorded composite z-score for "CCCC=C(CCC)[C@@H](NC(=O)Cc1ccccc1)c1ccc(C(=O)OC)cc1" , please?
0.372

Recorded composite z-score for "CCCNC(=O)[C@@H]1c2ccccc2C(=O)N(CC23CC4CC(CC(C4)C2)C3)[C@H]1c1ccc(CO)cc1" , please?
0.435

Recorded composite z-score for "CC(C)CNC(=O)[C@@]1(c2ccc([N+](=O)[O-])cc2)CC(=O)N(C(C)C)[C@@H]1c1ccc(CO)cc1" , please?
-0.618

Recorded composite z-score for "C=C(COC)C(=O)CC[C@H](OC(=O)c1ccccc1-c1ccccc1C(=O)O)c1ccc(CO)o1" , please?
0.634

* * *

system: PRMT1 (protein arginine N-methyltransferase 1); assay: small molecules binding arginine methyltransferase PRMT1 – biochemical, small-molecule microarray, 635 nm fluorescence, primary screen (AID 1088); settings: higher = more signal;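 also: binding of Prmt1 protein to compounds spotted on small-molecule microarray slides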
OBSERVATION TYPE: composite z-score
// keep it numeric: no unit symbol after the value

Recorded composite z-score for "C[C@@]1([C@@H](NC(=O)c2cccs2)c2ccc(-c3ccccc3)cc2)C[C@H]1C1CCCCC1" , please?
-1.61

Recorded composite z-score for "CN(C)C(=O)[C@]1(Cc2ccccc2N=[N+]=[N-])N=C(c2ccc(OCCCO)cc2)O[C@@H]1c1ccccc1CN=[N+]=[N-]" , please?
1.5

Recorded composite z-score for "C[N+](C)(C)CCCCCCNC(=O)[C@@H]1C[C@@H]2C(=O)NCC(=O)N2[C@@H]1c1ccc(O)cc1" , please?
1.53

Recorded composite z-score for O=C1NC(=O)C2C1C=CC(C(O)c1ccc3c(c1)OCO3)N2Nc1ccc(Cl)cc1Cl (stereo unspecified) , please?
0.0405

Recorded composite z-score for "COC(=O)[C@@]1(Cc2ccc(OC)cc2)[C@H]2c3cc(C(=O)N(C)C)n(CCF)c3C[C@H]2CN1C(=O)c1ccccc1" , please?
0.574

Recorded composite z-score for "CCCC[C@@H](O)C1=C(COc2ccccc2)Cn2c(=O)n(-c3ccccc3)c(=O)n2[C@H]1CO" , please?
0.0063

Recorded composite z-score for "[N-]=[N+]=NCc1ccccc1C[C@]1(C(=O)NCCN2CCOCC2)N=C(c2ccc(OCCCO)cc2)O[C@H]1c1ccccc1" , please?
1.54

Recorded composite z-score for "COCCOC(=O)N1C(=O)[C@@]2(c3cc(C#CCNC(N)=O)ccc31)[C@H](C(=O)N1CCCCCCC1)[C@H]1C(=O)O[C@H](c3ccccc3)[C@H](c3ccccc3)N1[C@@H]2c1ccc(OCCO)cc1" , please?
0.543

Recorded composite z-score for "COc1ccc(CCNC(=O)[C@@H]2c3ccccc3C(=O)N(Cc3ccccc3)[C@H]2c2ccc(CO)cc2)cc1" , please?
1.55

Recorded composite z-score for "COc1cccc(C)c1NC(=O)O[C@H]1[C@H](OC(=O)Nc2ccccc2)[C@H](OC(=O)Nc2ccccc2)[C@@H](OC)O[C@@H]1CO" , please?
1.55

Recorded composite z-score for CC(C)C(CO)N1C(=O)[C@@H]2[C@H]3C(=O)OCC=C[C@H]3OC23C=CCN(CCN2CCOCC2)C(=O)[C@@H]13 (stereo partly specified) , please?
0.598

Recorded composite z-score for "CC(=O)NCCCC[C@@H]1NC(=O)[C@@H]2C[C@H](C(=O)NCCCC[N+](C)(C)C)[C@H](c3cccc(OCCO)c3)N2C1=O" , please?
-0.598

Recorded composite z-score for "[N-]=[N+]=NCc1ccccc1C[C@]1(C(=O)NCCN2CCOCC2)COC(c2ccc(OCCCO)cc2)=N1" , please?
1.55

Recorded composite z-score for "O=C(N1CCOCC1)[C@@]1(CCS(=O)(=O)c2ccccc2)COC(c2ccc(OCCCO)cc2)=N1" , please?
0.988

Recorded composite z-score for "O=c1c2ccc(Br)cc2nc(-c2ccccc2)n1Cc1cccc(O)c1" , please?
0.529

Recorded composite z-score for "COCCCNC(=O)[C@@]1(Cc2ccccc2)COC(c2ccc(OCCCO)cc2)=N1" , please?
1.49

* * *

experiment: JC-1 mitochondrial signal, unstimulated MM1S myeloma – cell-based, JC-1 fluorescence, 24 h, 100 nL compound, profiling panel (AID 1170); conditions: MM1S mitochondrial potential, higher = more signal; also: test concentration not given here
What z-score was measured for each of the following?
// keep it numeric: no unit symbol after the value

Recorded z-score for "[N-]=[N+]=NCc1ccccc1C[C@]1(C(=O)NCCN2CCOCC2)COC(c2ccc(OCCCO)cc2)=N1" , please?
-1.05

Recorded z-score for "C#CCNS(=O)(=O)N(C)C" , please?
-0.777

Recorded z-score for OCCCC1=CC(c2cccs2)N(Cc2cccc(OC(F)(F)F)c2)CC1 (stereo not given) , please?
0.478

Recorded z-score for CC(C)C[C@@H]1NC(=O)[C@@]23C(=O)N[C@@H](Cc4ccccc4)C2[C@H](C)[C@@]2(C)O[C@H]2C3/C=C/C/C=C\CNC(=O)[C@@H]2CCCN2C1=O (stereo not given in full) , please?
-0.491

Recorded z-score for O=C1NC(=O)C2C1C=CC(C(O)c1ccc(-c3ccccc3)s1)N2Nc1ccccn1 (stereo not given) , please?
-0.371

* * *

experiment: compound effects on differentiated 3T3-L1 adipocyte viability – cell-based, 3T3-L1 adipocytes, calcein-AM fluorescence, 48 h, basal, profiling panel (AID 1163); settings: 3T3-L1 adipocytes viability, higher = more signal; also: test concentration not given here
What z-score was measured for each of the following?
// keep it numeric: no unit symbol after the value

Recorded z-score for "COCCCNC(=O)[C@@]1(Cc2ccccc2I)c2ccccc2C(=O)N(Cc2ccccc2Cl)[C@H]1c1ccc(CO)cc1" , please?
0.39

Recorded z-score for "COCCCNC(=O)[C@]1(Cc2ccccc2)N=C(c2ccc(OCCCO)cc2)O[C@@H]1c1ccccc1N=[N+]=[N-]" , please?
1.77

Recorded z-score for "CN(C)CCCCNC(=O)[C@H]1C[C@H]2C(=O)N[C@@H](CCCC[N+](C)(C)C)C(=O)N2[C@H]1c1cccc(OCCO)c1" , please?
0.067

Recorded z-score for "C[C@H]1ON(c2ccccc2)[C@@H](c2ccccc2)[C@@H]1C(=O)N1C(=O)OC[C@@H]1c1ccccc1" , please?
0.261

Recorded z-score for "COCCCNC(=O)[C@@]1(Cc2ccccc2)COC(c2ccc(OCCCO)cc2)=N1" , please?
-0.598

Recorded z-score for O=C(C=C(CC(O)c1cccc(Cl)c1)OCCF)OCCF (stereo not drawn) , please?
0.642

Recorded z-score for "CCCC=C(CCC)[C@@H](NS(=O)(=O)c1ccccc1)c1ccc(C(F)(F)F)cc1" , please?
-0.287

Recorded z-score for "CC(C)CN1C(=O)[C@@]2(Cc3ccccc31)c1ccccc1C(=O)N(Cc1ccccc1)[C@H]2c1ccc(CO)cc1" , please?
-0.0208

* * *

What composite z-score was measured for each of the following?
target: Follistatin (Homo sapiens); assay: FST protein binding to printed compounds – biochemical, small-molecule microarray, 635/667 nm fluorescence, primary screen (AID 1132); conditions: 635 nm fluorescence, higher = more signal
// keep it numeric: no unit symbol after the value

Recorded composite z-score for N#Cc1ccc(NN2C(C(O)c3ccco3)C=CC3C(=O)N(c4ccccc4)C(=O)C32)cc1 (centres undefined) , please?
0.552

Recorded composite z-score for "CCOC(=O)C[C@H]1[C@H](OC(=O)c2ccc(C(=O)c3ccccc3)cc2)[C@@H](NC(=O)C2CCCCC2)c2cc(OCCCO)ccc2N1C(=O)Cc1ccc(OC)cc1" , please?
0.432

Recorded composite z-score for "COC(=O)[C@@]1(Cc2ccc(F)cc2)[C@H]2c3cc(C(=O)N(C)C)n(Cc4ccc(C)c(F)c4F)c3C[C@H]2CN1C(=O)c1ccccc1" , please?
0.0662

Recorded composite z-score for "NC(=O)[C@H]1[C@@H]2C(=O)O[C@@H](c3ccccc3)[C@@H](c3ccccc3)N2[C@@H](c2ccc(O)cc2)[C@]12C(=O)Nc1ccc(C#CC3(O)CCCCCC3)cc12" , please?
1.24

* * *

molecular target: Fibroblast growth factor 10 (Homo sapiens); assay: compounds binding fibroblast growth factor 10 – biochemical, small-molecule microarray, 635 nm fluorescence, primary screen (AID 1102); conditions: FGF10 binding, fluorescence 635 nm, higher = more signal
OBSERVATION TYPE: composite z-score
// keep it numeric: no unit symbol after the value

Recorded composite z-score for "COCCOC(=O)N1C(=O)[C@@]2(c3cc(C#Cc4ccc(OC)cc4)ccc31)[C@H](C(=O)N1CCc3cc(OC)c(OC)cc3C1)[C@H]1C(=O)O[C@H](c3ccccc3)[C@H](c3ccccc3)N1[C@@H]2c1ccc(OCCO)cc1" , please?
0.705

Recorded composite z-score for CC(C)=CCCC(C)=CC(O)C1C=CC2C(=O)N(c3ccccc3)C(=O)C2N1Nc1ccc([N+](=O)[O-])cc1 (configuration not stated) , please?
0.74

Recorded composite z-score for "Cc1ccc(S[C@]2(C(=O)O)CC(=O)N(Cc3ccccc3C(F)(F)F)[C@@H]2c2ccc(CO)cc2)cc1" , please?
-0.628

Recorded composite z-score for "COCCCNC(=O)[C@@]1(Cc2ccccc2N=[N+]=[N-])N=C(c2ccc(OCCCO)cc2)O[C@H]1c1ccccc1CN=[N+]=[N-]" , please?
1.43

Recorded composite z-score for "COC(=O)[C@@]1(Cc2ccccc2)[C@H]2c3cc(C(=O)N4CCCC4)n(CCO)c3C[C@H]2CN1C(=O)c1ccccc1" , please?
0.615

Recorded composite z-score for "COCCOC(=O)N1C(=O)[C@@]2(c3cc(C#CCC(C(=O)OC)C(=O)OC)ccc31)[C@H](c1ccc(OCCO)cc1)N1[C@H](c3ccccc3)[C@H](c3ccccc3)OC(=O)[C@H]1[C@@H]2C(N)=O" , please?
1.1

Recorded composite z-score for "CC(C)NC(=O)[C@@]1(Cc2ccccc2I)c2ccccc2C(=O)N(Cc2ccccc2C(F)(F)F)[C@H]1c1ccc(CO)cc1" , please?
0.157

Recorded composite z-score for "O=C1O[C@H](c2ccccc2)[C@H](c2ccccc2)N2[C@H]1[C@@H](C(=O)N1CCN(c3ncccn3)CC1)[C@]1(C(=O)Nc3ccc(C#CCCO)cc31)[C@H]2c1ccccc1OCCO" , please?
1.15

Recorded composite z-score for "CN(C)CCCNC(=O)[C@@]1(Cc2ccccc2I)c2ccccc2C(=O)N(Cc2ccccc2Cl)[C@H]1c1ccc(CO)cc1" , please?
0.247

Recorded composite z-score for "COc1ccc([Si](C)(C)[C@@H]2[C@@H](CCO)O[C@]3(C(=O)N(Cc4cccc(N5C(=O)COc6ccccc65)c4)c4ccccc43)[C@H]2C)cc1" , please?
0.247

Recorded composite z-score for "COCCOC(=O)N1C(=O)[C@@]2(c3cc(C#CCCO)ccc31)[C@H](C(=O)N1CCc3cc(OC)c(OC)cc3C1)[C@H]1C(=O)O[C@H](c3ccccc3)[C@H](c3ccccc3)N1[C@@H]2c1ccc(OCCO)cc1" , please?
1.37

Recorded composite z-score for C=CCC(OC(C)=O)[C@@H]1[C@@H](N(Cc2ccc(-c3ccccc3)cc2)C(=O)c2cccc3ccccc23)c2cc(OCCCO)ccc2N1C(=O)c1ccc2ccccc2n1 (some centres not stated) , please?
-0.142

Origin of measurements: PubChem BioAssay
